Cited source for all entries: paper PMC8906099

- Test system: intracellular amastigotes of T. cruzi CA-I/72 strain
- test: Time-course study against intracellular amastigotes
- Format: cell-based
- condition_parameters: Trypanosoma cruzi, 12 h, read-out: IC50 ± SD
measure_name: IC50 (µM)
Numeric answer only, unit µM assumed.

Below, each entry is followed by its recorded IC50 result.
COc1ccc(/C=C/C(=O)/C=C/c2ccc(OC)c(OC)c2)cc1OC : 63.3
O=C(Cn1ccnc1[N+](=O)[O-])NCc1ccccc1 [BZ, benznidazole, reference compound] : 6.85

Req: Request the reported IC50 associated with O=C(/C=C/c1ccccc1)/C=C/c1ccccc1
Resp: 76.8

---

- Test system: infected C2C12 cells
- test: Cytotoxicity in infected C2C12 cells after 72 h
- Assay type: cell-based, murine
- condition_parameters: infected C2C12, CA-I/72 strain, 72 h
Assign labels as follows, please: Criterion met for SI (CC50/IC50) below 0.2; Criterion not met for SI (CC50/IC50) equal to or exceeding 0.2.

Reference set, count: 3
O=C(/C=C/c1ccc(Cl)cc1)/C=C/c1ccc(Cl)cc1 : Criterion not met
COc1ccc(/C=C/C(=O)/C=C/c2ccc(OC)c(OC)c2)cc1OC : Criterion not met
COc1ccc(/C=C/C(=O)/C=C/c2ccc(OC)cc2)cc1 : Criterion not met

Req: Consider the compound O=C(/C=C/c1ccccc1)/C=C/c1ccccc1 . Is its SI (CC50/IC50) strictly less than 0.2?
Resp: Criterion not met

Req: Consider the compound COc1cc(OC)c(/C=C/C(=O)/C=C/c2c(OC)cc(OC)cc2OC)c(OC)c1 . Is its SI (CC50/IC50) strictly less than 0.2?
Resp: Criterion met
